Where these numbers come from: paper PMC3959898

target.desc: CqsSVh (Vibrio campbellii)
Sequence (A7N6S2 whole entry): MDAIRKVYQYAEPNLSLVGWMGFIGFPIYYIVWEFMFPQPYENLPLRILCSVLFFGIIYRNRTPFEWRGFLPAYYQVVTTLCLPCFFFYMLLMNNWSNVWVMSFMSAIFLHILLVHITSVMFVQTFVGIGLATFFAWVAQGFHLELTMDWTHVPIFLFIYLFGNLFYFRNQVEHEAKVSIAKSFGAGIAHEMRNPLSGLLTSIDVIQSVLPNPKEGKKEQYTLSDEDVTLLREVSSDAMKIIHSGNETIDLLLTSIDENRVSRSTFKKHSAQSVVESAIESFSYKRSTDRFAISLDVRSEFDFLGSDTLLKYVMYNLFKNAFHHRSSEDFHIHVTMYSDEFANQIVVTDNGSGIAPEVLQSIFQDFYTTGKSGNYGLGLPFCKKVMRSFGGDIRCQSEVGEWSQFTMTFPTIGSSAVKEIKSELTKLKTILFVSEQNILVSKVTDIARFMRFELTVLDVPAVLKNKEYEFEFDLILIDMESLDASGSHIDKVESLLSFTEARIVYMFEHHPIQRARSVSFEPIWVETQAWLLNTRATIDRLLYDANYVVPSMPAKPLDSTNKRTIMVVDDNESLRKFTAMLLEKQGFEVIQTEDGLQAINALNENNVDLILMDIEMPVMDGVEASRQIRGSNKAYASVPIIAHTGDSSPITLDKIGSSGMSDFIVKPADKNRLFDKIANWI
test.summary: V. harveyi bioluminescent reporter strain expressing cqsSVh
observable: EC50 (nM)
Give the value in nM but do not write nM after it.

The compound listed as C/C=C(\N)C(=O)CCCCCCC [Ea-C8-CAI-1, (Z)-3-aminoundec-2-en-4-one] shows EC50 equal to 100
